Assay: Dose normalized AUC in ICR mouse at 5 mg/kg, po by LC-MS/SM analysis
Assay type: ADME, organism-based
Settings: in vivo
metric: AUC/dose (ng·h/mL per mg/kg)
Numbers only; they are read as ng·h/mL per mg/kg.

Requested field: AUC/dose. Item: COc1ncc(-c2cc(OCC3(C)COC3)c3ncnc(C)c3c2)cc1NS(=O)(=O)c1ccc(F)cc1F 734

----------
Assay: Cmax in ICR mouse at 5 mg/kg, po by LC-MS/SM analysis
Assay type: ADME, organism-based
Parameters: dose 5 mg/kg, route oral
Conditions: in vivo
Catalogue of Cmax values
Number first, unit second: that is the form wanted.

Solved entries:
compound_string=COc1ncc(-c2cc(O[C@@H]3CCOC3)c3ncnc(C)c3c2)cc1NS(=O)(=O)c1ccc(F)cc1F metric=Cmax recorded_value="1440 ng/mL"
compound_string=COc1ncc(-c2cc(OCC3(C)COC3)c3ncnc(C)c3c2)cc1NS(=O)(=O)c1ccc(F)cc1F metric=Cmax recorded_value="1220 ng/mL"

Could you now consider this next molecule?
Fill in: Cmax of COc1ncc(-c2cc(OC3CCOCC3)c3ncnc(C)c3c2)cc1NS(=O)(=O)c1ccc(F)cc1F is ___ 1210 ng/mL

----------
Listed next: entries and their corresponding IC50.
Target: PI3K p110 beta/p85 alpha (Homo sapiens, UniProt P42338)
Sequence (P42338 whole entry, one chain of several): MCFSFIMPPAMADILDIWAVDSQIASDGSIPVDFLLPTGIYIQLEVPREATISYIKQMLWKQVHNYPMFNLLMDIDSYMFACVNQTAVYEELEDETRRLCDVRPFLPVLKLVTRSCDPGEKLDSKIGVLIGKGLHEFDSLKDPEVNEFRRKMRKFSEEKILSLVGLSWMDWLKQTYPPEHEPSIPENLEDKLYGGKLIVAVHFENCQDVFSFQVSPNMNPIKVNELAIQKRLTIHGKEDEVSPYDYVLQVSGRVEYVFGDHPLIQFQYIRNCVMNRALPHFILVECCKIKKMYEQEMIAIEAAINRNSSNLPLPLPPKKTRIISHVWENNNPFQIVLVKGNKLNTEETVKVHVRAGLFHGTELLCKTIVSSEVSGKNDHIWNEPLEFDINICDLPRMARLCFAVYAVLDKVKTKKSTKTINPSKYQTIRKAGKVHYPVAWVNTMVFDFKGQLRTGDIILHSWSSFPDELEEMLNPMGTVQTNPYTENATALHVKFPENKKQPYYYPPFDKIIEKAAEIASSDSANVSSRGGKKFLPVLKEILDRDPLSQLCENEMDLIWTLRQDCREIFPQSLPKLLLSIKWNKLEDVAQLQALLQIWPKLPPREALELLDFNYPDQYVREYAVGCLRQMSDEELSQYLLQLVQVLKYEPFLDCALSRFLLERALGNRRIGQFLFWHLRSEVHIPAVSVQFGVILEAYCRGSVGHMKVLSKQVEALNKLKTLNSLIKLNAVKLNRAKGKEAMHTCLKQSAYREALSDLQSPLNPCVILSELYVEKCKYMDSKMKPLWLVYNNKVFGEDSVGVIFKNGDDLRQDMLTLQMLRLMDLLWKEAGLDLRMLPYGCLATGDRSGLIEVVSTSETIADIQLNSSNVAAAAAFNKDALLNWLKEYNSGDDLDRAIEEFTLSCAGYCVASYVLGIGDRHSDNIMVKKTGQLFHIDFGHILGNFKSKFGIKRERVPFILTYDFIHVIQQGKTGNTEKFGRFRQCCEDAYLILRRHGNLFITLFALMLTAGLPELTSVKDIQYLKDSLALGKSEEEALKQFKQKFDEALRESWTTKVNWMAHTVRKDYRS
Test: Inhibition of recombinant human N-terminal FLAG-tagged full-length p110beta/human p85alpha expressed in Sf9 insect cells using PIP2 as substrate by ADP-glo assay
# unit: nM | format: bare number

compound_string=COc1ncc(-c2cc(O[C@@H]3CCOC3)c3ncnc(C)c3c2)cc1NS(=O)(=O)c1ccc(F)cc1F unit_of_measurement=nM recorded_value=0.34
compound_string=COc1ncc(-c2cc(OCC3(C)COC3)c3ncnc(C)c3c2)cc1NS(=O)(=O)c1ccc(F)cc1F unit_of_measurement=nM recorded_value=0.7

Alright, here's another compound for you.
What does the record list as IC50 for COc1ncc(-c2cc(OC3CCOCC3)c3ncnc(C)c3c2)cc1NS(=O)(=O)c1ccc(F)cc1F ? 0.54

----------
Assay: Therapeutic index, ratio of MTD in po dosed C57BL/6 mouse to compound effect for antifibrotic activity in bleomycin-induced C57BL/6 mouse model of pulmonary fibrosis
Type: toxicity, organism-based
Conditions: in vivo, read-out: TI
metric: selectivity ratio

Please look up its selectivity ratio: COc1ncc(-c2cc(OCC3(C)COC3)c3ncnc(C)c3c2)cc1NS(=O)(=O)c1ccc(F)cc1F > 10

----------
Experiment: Half life in ICR mouse at 5 mg/kg, po by LC-MS/SM analysis
Type: ADME, organism-based
Details: in vivo
metric: half-life (h)
Output spec: scalar in h, unitless text.

compound_string=COc1ncc(-c2cc(OC3CCOCC3)c3ncnc(C)c3c2)cc1NS(=O)(=O)c1ccc(F)cc1F recorded_value=5.57

Return reported half-life; argument: COc1ncc(-c2cc(OCC3(C)COC3)c3ncnc(C)c3c2)cc1NS(=O)(=O)c1ccc(F)cc1F 4.98

Proceed to COc1ncc(-c2cc(O[C@@H]3CCOC3)c3ncnc(C)c3c2)cc1NS(=O)(=O)c1ccc(F)cc1F 4.08

----------
Experiment: Oral bioavailability in ICR mouse at 5 mg/kg by LC-MS/SM analysis
Type: ADME, organism-based
Settings: in vivo
The entries below come with measured bioavailability values attached.
The answer is to be given in %; state only the numeric part.

compound_string=COc1ncc(-c2cc(O[C@@H]3CCOC3)c3ncnc(C)c3c2)cc1NS(=O)(=O)c1ccc(F)cc1F unit_of_measurement=% recorded_value=58.7

Using the record for COc1ncc(-c2cc(OCC3(C)COC3)c3ncnc(C)c3c2)cc1NS(=O)(=O)c1ccc(F)cc1F , report its bioavailability. 53.1

// same read-out, input: COc1ncc(-c2cc(OC3CCOCC3)c3ncnc(C)c3c2)cc1NS(=O)(=O)c1ccc(F)cc1F 15.8

----------
Molecular target: PI3-kinase p110-delta/p85-alpha (Homo sapiens)
Sequence (P27986 whole entry): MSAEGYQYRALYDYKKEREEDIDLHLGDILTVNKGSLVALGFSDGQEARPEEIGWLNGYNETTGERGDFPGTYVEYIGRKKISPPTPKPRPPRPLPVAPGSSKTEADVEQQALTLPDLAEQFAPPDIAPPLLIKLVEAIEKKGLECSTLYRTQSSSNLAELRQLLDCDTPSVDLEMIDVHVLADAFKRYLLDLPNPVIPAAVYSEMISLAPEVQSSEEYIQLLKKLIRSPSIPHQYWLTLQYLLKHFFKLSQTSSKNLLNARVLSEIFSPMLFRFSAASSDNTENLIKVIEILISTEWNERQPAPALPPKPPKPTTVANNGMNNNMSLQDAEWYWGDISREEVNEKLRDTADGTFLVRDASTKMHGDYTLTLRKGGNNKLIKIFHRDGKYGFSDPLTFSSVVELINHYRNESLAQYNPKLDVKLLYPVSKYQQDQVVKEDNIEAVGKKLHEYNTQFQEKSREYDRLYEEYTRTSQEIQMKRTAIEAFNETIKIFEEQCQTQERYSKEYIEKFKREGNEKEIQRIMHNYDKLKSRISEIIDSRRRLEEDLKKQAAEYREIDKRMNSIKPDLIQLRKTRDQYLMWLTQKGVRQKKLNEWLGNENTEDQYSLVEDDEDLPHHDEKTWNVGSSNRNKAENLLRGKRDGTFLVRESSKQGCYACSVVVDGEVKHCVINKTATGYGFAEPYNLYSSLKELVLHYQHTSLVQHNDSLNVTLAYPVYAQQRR
Sequence (O00329 whole entry): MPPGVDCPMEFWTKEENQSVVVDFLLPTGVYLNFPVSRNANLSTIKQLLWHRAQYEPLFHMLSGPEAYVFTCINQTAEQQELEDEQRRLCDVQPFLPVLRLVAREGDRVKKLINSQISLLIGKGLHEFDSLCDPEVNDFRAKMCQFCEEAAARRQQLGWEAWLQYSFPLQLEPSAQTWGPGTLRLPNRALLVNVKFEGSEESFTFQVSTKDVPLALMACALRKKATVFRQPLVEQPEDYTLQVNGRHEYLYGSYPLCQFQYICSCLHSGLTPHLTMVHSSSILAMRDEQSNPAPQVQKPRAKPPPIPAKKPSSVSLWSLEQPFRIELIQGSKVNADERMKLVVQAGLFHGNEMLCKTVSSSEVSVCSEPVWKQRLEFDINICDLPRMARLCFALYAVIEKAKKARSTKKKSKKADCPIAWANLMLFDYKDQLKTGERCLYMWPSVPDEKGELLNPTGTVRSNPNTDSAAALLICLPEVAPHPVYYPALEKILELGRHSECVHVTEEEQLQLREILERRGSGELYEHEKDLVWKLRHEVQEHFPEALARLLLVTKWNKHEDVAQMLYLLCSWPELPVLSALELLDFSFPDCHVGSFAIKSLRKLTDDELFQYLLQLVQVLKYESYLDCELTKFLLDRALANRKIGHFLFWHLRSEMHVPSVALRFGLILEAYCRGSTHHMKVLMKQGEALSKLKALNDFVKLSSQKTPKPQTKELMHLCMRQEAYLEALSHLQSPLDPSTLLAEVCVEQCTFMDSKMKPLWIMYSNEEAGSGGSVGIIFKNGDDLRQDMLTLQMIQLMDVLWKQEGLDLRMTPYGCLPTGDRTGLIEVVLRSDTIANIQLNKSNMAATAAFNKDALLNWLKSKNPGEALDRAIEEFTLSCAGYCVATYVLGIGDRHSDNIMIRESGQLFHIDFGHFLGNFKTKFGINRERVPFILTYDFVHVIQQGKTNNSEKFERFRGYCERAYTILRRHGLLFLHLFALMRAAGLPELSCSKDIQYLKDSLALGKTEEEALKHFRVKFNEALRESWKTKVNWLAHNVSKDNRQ
Experiment: Inhibition of recombinant human N-terminal GST-tagged full-length p110delta/human p85alpha expressed in Sf9 insect cells using PIP2 as substrate by ADP-glo assay
metric: IC50 (nM)
Express your answer in nM, writing the number without its unit.

Solved entries:
compound_string=COc1ncc(-c2cc(O[C@@H]3CCOC3)c3ncnc(C)c3c2)cc1NS(=O)(=O)c1ccc(F)cc1F metric=IC50 unit_of_measurement=nM recorded_value=0.35
compound_string=COc1ncc(-c2cc(OCC3(C)COC3)c3ncnc(C)c3c2)cc1NS(=O)(=O)c1ccc(F)cc1F metric=IC50 unit_of_measurement=nM recorded_value=1.1

Given the compound COc1ncc(-c2cc(OC3CCOCC3)c3ncnc(C)c3c2)cc1NS(=O)(=O)c1ccc(F)cc1F , what is its reported IC50? 0.52

----------
Experiment: Apparent permeability across basolateral to apical side in human Caco2 cells measured after 90 mins by LC-MS/MS analysis
Conditions: Caco-2
metric: Papp B→A at 1.5 h (×10⁻⁶ cm/s)
Give a bare numeral; the unit ×10⁻⁶ cm/s is implied.

Worked cases, answers included:
compound_string=COc1ncc(-c2cc(OCC3(C)COC3)c3ncnc(C)c3c2)cc1NS(=O)(=O)c1ccc(F)cc1F unit_of_measurement="×10⁻⁶ cm/s" recorded_value=36
compound_string=COc1ncc(-c2cc(OC3CCCC3)c3ncnc(C)c3c2)cc1NS(=O)(=O)c1ccc(F)cc1F unit_of_measurement="×10⁻⁶ cm/s" recorded_value=17
compound_string=COc1ncc(-c2cc(OCC3CC3)c3ncnc(C)c3c2)cc1NS(=O)(=O)c1ccc(F)cc1F unit_of_measurement="×10⁻⁶ cm/s" recorded_value=23
compound_string=COc1ncc(-c2cc(OC(F)F)c3ncnc(C)c3c2)cc1NS(=O)(=O)c1ccc(F)cc1F unit_of_measurement="×10⁻⁶ cm/s" recorded_value=17
compound_string=COc1ncc(-c2cc(OC(C)C)c3ncnc(C)c3c2)cc1NS(=O)(=O)c1ccc(F)cc1F unit_of_measurement="×10⁻⁶ cm/s" recorded_value=22

Which Papp B→A at 1.5 h value is on record for COc1ncc(-c2cc(O[C@@H]3CCOC3)c3ncnc(C)c3c2)cc1NS(=O)(=O)c1ccc(F)cc1F ? 37

Okay, and COc1ncc(-c2cc(OCC3CCOCC3)c3ncnc(C)c3c2)cc1NS(=O)(=O)c1ccc(F)cc1F ? 33

Try the compound COc1ncc(-c2cc(OC3CCC3)c3ncnc(C)c3c2)cc1NS(=O)(=O)c1ccc(F)cc1F 30
